# TESTED_TARGET: IGF-IR on human tumour cells (H292, MCF-7, RH41) (human, UniProt P08069 31-1367)
# ASSAY_COMMENT: cell-based or functional assay
REPORTED_PROPERTY: pIGFR IC50 (nM)
Please respond with the number in nM and leave the unit unwritten.

I1-GSGCGS8-E5 pegylated (designed binder, PEG on the Cys of the GSGCGS8 linker, alternative clone of I1-GS10-E5 pegylated; tail of first monomer EIEK (D to E); also called I1-GSGCGS8-E5(3)) MGVSDVPRDLEVVAATPTSLLISWSARLKVARYYRITYGETGGNSPVQEFTVPKNVYTATISGLKPGVDYTITVYAVTRFRDYQPISINYRTEIEKGSGCGSGSGSGSGSGSGSGSVSDVPRDLEVVAATPTSLLISWWAPVDRYQYYRITYGETGGNSPVQEFTVPRDVYTATISGLKPGVDYTITVYAVTDYKPHADGPHTYHESPISINYRTEHHHHHH : 1.4

Let us examine a further case.
Return reported pIGFR IC50. Input binder: I1(S91C)-GS10-E5 pegylated (designed binder, PEG on Cys at position 91 of I1 (position of SEQ ID NO: 1), also called I1(S91C)-GS10-E5(7)) MGVSDVPRDLEVVAATPTSLLISWSARLKVARYYRITYGETGGNSPVQEFTVPKNVYTATISGLKPGVDYTITVYAVTRFRDYQPICINYRTEIEKGSGSGSGSGSGSGSGSGSGSVSDVPRDLEVVAATPTSLLISWWAPVDRYQYYRITYGETGGNSPVQEFTVPRDVYTATISGLKPGVDYTITVYAVTDYKPHADGPHTYHESPISINYRTEHHHHHH
6.2
